Kindly state IC50 for each of the entries shown.
- Tested system: JAK1 (Homo sapiens (Human))
- Sequence (P23458 875-1153): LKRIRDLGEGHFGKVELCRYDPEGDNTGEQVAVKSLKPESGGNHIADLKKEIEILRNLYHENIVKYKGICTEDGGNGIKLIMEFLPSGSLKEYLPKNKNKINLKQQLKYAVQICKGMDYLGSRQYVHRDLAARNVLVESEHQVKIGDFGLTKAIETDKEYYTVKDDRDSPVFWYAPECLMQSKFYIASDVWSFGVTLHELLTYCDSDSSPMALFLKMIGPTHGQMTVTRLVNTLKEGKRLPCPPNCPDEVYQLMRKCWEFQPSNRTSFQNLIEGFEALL
- Experiment notes: Jak biochemical HTRF assay, JAK1
- Measurement context: JAK1 IC50 (nM), recombinant GST-tagged catalytic domain, [ATP] 31.8 μM
# number only, unit nM dropped from output

For record N#CC[C@@H](C1CCN(C(=O)OC2CCCCC2)CC1)n1cc(C(N)=O)c(Nc2ccc(F)cc2)n1 (single isomer, unassigned) the listed IC50 is 628

For record N#CC[C@@H](C1CCN(C(=O)OC2CCC2)CC1)n1cc(C(N)=O)c(Nc2ccc(F)cc2)n1 the listed IC50 is 33

For record N#CCC(C1CCCC1)n1cc(C(N)=O)c(Nc2ccccc2)n1 (single isomer, unassigned) [Example 16-3] the listed IC50 is 47

For record N#CCC(CC1CCOCC1)n1cc(C(N)=O)c(Nc2ccccc2)n1 (stereo not shown) the listed IC50 is 289
